// data source = patent US20240199571A1

Listed next: entries and their corresponding pIC50.
target: hERG potassium ion channels (Homo sapiens (Human), UniProt Q12809); experiment: Experiment 4: hERG potassium ion channel inhibition, automated patch clamp (Qpatch), CHO-hERG cells; conditions: highest test concentration 40 μM
Sequence (Q12809 whole entry): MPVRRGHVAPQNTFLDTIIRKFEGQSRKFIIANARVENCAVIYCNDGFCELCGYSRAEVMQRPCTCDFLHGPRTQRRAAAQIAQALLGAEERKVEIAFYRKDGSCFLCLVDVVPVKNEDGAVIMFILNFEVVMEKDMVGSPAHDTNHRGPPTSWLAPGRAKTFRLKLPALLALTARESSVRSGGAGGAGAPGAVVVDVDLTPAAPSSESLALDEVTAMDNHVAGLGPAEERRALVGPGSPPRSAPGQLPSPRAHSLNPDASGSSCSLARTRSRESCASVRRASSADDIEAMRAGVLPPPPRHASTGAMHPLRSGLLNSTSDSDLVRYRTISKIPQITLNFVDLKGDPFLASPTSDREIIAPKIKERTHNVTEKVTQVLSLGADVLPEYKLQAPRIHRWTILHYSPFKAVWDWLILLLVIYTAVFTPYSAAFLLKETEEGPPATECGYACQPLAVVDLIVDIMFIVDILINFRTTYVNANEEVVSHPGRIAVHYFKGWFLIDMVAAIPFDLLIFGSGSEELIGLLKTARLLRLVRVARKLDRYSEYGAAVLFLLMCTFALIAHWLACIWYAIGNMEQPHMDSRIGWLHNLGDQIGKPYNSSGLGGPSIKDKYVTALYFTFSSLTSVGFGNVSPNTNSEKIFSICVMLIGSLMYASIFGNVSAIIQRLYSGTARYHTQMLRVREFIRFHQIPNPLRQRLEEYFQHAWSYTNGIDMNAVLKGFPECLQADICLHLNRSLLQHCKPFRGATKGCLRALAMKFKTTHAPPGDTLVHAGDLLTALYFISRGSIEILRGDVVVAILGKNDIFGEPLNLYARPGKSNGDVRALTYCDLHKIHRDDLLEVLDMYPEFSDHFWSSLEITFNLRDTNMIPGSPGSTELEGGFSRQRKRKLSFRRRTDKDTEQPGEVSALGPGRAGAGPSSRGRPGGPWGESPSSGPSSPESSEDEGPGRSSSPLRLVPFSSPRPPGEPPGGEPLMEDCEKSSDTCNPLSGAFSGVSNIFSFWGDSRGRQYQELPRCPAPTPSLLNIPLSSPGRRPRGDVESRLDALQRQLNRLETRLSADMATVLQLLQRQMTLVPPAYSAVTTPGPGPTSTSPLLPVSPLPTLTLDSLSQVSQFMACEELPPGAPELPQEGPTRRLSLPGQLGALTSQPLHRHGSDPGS
pIC50: −log10 of the molar value. Where a name gives a salt, the structure may show the parent alone.

[[record]]
molecule = "N#Cc1ccc(-c2cc(C(=O)N3CCC[C@@H](N)C3)sc2-c2ccc(OCC(=O)O)c(F)c2)cc1F [Hydrochloride of compound 30]"
observed = "< 4.40"

[[record]]
molecule = "CC(C)(O)Cn1nnc2cc(-c3sc(C(=O)N4CCCNCC4)cc3-c3ccc(C#N)c(F)c3)c(F)c(F)c21 [Hydrochloride of compound 111]"
observed = 4.67

[[record]]
molecule = "N#Cc1ccc(-c2cc(C(=O)N3CCC[C@@H](N)C3)sc2-c2ccc3nn(C4CC(O)C4)cc3c2)cc1F (stereo partly drawn) [Hydrochloride of compound 73]"
observed = "< 4.40"

[[record]]
molecule = "N#Cc1ccc(-c2cc(C(=O)N3CCC[C@@H](N)C3)sc2-c2ccc3nncn3c2)cc1F [Compound 67]"
observed = "< 4.40"


Req: Please tell me: pIC50 of Cn1cc2cc(-c3sc(C(=O)N4CCC[C@@H](N)C4)cc3-c3ccc(C#N)c(F)c3)cnc2n1 [Hydrochloride of compound 56] , system hERG potassium ion channels (Homo sapiens (Human), UniProt Q12809)?
Resp: < 4.40

Req: Please tell me: pIC50 of CN[C@@H]1CCCN(C(=O)c2cc(-c3ccc(C#N)c(F)c3)c(-c3cc4nnn(CC(C)(C)O)c4c(F)c3F)s2)C1 [Hydrochloride of compound 98] , system hERG potassium ion channels (Homo sapiens (Human), UniProt Q12809)?
Resp: 4.73
